system-tested: T1, biotinylated recombinant human IL-12Rβ2 (human, UniProt Q99665 24-622, random biotinylated)
T1 construct: Recombinant protein produced in-house, biotinylated; also called hIL-12RB2; human IL-12RB2
T1 sequence: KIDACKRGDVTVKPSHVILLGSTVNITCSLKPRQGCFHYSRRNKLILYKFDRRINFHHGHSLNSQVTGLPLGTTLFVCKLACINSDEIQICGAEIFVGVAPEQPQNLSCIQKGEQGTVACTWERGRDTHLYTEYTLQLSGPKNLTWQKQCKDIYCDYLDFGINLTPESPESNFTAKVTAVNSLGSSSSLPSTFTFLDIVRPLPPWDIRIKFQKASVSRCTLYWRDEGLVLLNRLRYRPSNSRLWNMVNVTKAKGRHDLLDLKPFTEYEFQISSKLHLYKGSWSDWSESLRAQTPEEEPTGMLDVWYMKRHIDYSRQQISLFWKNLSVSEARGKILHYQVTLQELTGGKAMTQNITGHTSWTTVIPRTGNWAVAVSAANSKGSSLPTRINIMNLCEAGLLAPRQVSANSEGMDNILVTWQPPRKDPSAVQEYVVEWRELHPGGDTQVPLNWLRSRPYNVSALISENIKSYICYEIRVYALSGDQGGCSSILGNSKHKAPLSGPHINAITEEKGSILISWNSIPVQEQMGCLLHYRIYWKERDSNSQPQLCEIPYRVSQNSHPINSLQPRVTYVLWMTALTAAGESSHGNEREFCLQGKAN
method-description: ELISA, periplasmic extract on biotinylated hIL-12Rβ2, signal over control wells
Can you tell me ELISA binding hIL-12RB2/control for the items I'm about to list?
Answer with the figure and its unit, nothing else.

**Query** Returns the measured ELISA binding hIL-12RB2/control for the input binder. Input: anti-IL-12Rβ2 VHH clone 20511 (VHH, not shown: small tags and cut ends, tested as periplasmic extract; also called 3CAM36) VHH: QVQLQESGGGLVQAGESLTLSCTASGRTFSSYGMGWFRQAPGKERDFVAAISRDARYTDYADSVKGRFTISKDNAKNTAYLQMNSLNPEDTAVYFCAAAYTYSGSHYVTARSGDYNYWGQGTQVTVSS
**Result** 1.2 ratio

**Query** // next record anti-IL-12Rβ2 VHH clone 20484 (VHH, not shown: small tags and cut ends, tested as periplasmic extract; also called 2CAM42) VHH: QVQLQESGGGLVQPGGSLRLSCAASGRTFSNSVMGWFRQAPGKEREFVAALMWSAGSEFYTDSVKGRFSISGDGAKNTVYLQMNSLKAEDTAVYYCAAKNPPHRWSDIGKSPHYEYWGQGTQVTVSS
**Result** 1.01 ratio

**Query** // next record anti-IL-12Rβ2 VHH clone 20553 (VHH, not shown: small tags and cut ends, tested as periplasmic extract; also called 3CAMS73) VHH: QVQLQESGGGLVQPGGSLRLSCAASGRTFSTYAMGWFRQAPGKEREFVAAISWSGGRTYYADSVKGRFTISRDNAKNTAYLQMSSLIPEDTAVYYCAADPADYTGSYYYQRSYDYWGQGTQVTVSS
**Result** 0.99 ratio

**Query** // next record anti-IL-12Rβ2 VHH clone 21061 (VHH, not shown: small tags and cut ends, tested as periplasmic extract; also called 3CRHM85) VHH: QVQLQESGGGLVQPGGSLRLSCAASRRTFSKHAMAWFRQAPGKEREFVAVVRWSGIITYYADSVKGRFTISRDDAKNTVYLQMDSLKPEDTAVYYCAAGDYRGNGYYVPGMYDYWGQGTQVTVSS
**Result** 3.52 ratio
